molecular target: T1, hVISTA-ECD 6-His tag (human, UniProt Q9H7M9 33-193); experiment: SPR, Ab on Protein A, hVISTA analyte, pH 6.45
T1 construct: also called monovalent hVISTA-ECD; human VISTA
T1 sequence (Q9H7M9 other isoform, or with tags, fused parts or gaps limits assumed): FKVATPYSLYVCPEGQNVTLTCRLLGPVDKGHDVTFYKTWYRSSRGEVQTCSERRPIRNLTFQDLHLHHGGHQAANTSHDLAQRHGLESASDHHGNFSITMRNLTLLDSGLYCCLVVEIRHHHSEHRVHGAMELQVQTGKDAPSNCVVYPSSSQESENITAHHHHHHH
The following binders are shown together with reported koff values.

{"binder": "P1-068748 (antibody, human IgG1, kappa, V domains shown, also called P1-068748-6) VH: QVQLVESGGGVVQPGRSLRLSCAASGFTFSHHAMHWVRQAPGKGLEWVAIIWYDGSNDDYADSVKGRFTISRDNSKNTLYLQMNSLRAEDTAVYYCARDSGFYDSYYFDYWGQGTLVTVSS VL: EIVLTQSPATLSLSPGERATLSCRASQSVSSSYLAWYQQKPGQAPRLLIYDASNRATGIPARFSGSGSGTDFTLTISSLEPEDFATYYCQQYNSYPYTFGQGTKLEIKR", "koff [s⁻¹]": 0.012}
{"binder": "P1-068744 (antibody, human IgG1, kappa, V domains shown, also called P1-068744-7) VH: QVQLVESGGGVVQPGRSLRLSCAASGFTFSEYAMHWVRQAPGKGLEWVAHIWYDGSNKYEADSVKGRFTISRDNSKNTLYLQMNSLRAEDTAVYYCARDSGFYESYYFDEWGQGTLVTVSS VL: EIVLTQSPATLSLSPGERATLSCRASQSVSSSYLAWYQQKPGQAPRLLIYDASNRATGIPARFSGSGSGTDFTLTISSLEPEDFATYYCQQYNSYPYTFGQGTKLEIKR", "koff [s⁻¹]": 0.014}
{"binder": "P1-061520 (41F11 VK_A64G) (antibody, V domains shown, also called P1-061520-21; VISTA.4.A64G) VH: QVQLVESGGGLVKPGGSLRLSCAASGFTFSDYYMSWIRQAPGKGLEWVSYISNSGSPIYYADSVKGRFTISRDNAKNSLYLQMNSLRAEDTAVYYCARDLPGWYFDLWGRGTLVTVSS VL: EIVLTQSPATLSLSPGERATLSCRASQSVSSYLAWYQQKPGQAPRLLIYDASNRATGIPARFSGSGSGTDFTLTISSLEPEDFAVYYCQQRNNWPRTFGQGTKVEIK", "koff [s⁻¹]": 0.00554}

Every entry's value here was drawn from patent US20230192860A1.
